- Target desc: PRMT5 (Homo sapiens)
- Construct: purchased Viva (custom protein)
- Sequence (O14744 whole entry): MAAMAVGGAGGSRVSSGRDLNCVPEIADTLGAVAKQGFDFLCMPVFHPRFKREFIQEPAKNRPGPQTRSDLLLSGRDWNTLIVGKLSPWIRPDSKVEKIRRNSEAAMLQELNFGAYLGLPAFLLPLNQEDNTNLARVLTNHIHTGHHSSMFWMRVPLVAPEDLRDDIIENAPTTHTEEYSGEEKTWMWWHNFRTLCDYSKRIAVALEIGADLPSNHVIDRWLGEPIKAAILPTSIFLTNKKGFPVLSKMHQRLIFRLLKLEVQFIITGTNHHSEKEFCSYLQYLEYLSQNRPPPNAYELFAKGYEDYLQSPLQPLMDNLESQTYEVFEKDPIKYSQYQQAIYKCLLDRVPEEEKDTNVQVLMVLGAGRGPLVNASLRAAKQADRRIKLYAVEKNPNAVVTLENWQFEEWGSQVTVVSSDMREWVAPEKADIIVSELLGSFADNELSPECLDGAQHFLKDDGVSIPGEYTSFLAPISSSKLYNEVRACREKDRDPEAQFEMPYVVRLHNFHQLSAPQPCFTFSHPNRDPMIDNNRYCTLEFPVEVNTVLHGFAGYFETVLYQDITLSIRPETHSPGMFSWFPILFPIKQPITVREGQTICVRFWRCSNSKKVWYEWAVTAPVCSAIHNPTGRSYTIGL
- Sequence (Q9BQA1 whole entry partner): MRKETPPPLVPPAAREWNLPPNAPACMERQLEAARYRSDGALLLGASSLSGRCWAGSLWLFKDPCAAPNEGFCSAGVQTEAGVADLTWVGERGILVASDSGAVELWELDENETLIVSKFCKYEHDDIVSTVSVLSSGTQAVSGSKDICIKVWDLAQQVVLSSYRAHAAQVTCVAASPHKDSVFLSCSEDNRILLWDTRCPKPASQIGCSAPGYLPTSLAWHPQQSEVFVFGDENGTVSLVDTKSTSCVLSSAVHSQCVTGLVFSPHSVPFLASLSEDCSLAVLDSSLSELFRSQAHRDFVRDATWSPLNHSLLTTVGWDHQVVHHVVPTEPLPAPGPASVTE
- Assay notes: PRMT5 biochemical IC50 assay with no cofactor
- Test settings: PRMT5, no cofactor; read-out: No Cofactor/rel IC50
Observed property: IC50

Before answering, review these 5 worked examples.
{"Compound": "Cc1cc(NC(=O)C(=O)N2C[C@H](C)CC[C@H]2c2cc(Cl)cc(C(F)(F)F)c2)cnc1N (single isomer, unassigned)", "IC50": "> 500 nM"}
{"Compound": "Cc1cc(NC(=O)C(=O)N2CCCC[C@@H]2C2CCCC2)cnc1N (single isomer, unassigned)", "IC50": "> 500 nM"}
{"Compound": "Cc1cc(NC(=O)C(=O)N2C[C@@H](C)CC[C@@H]2c2ccc(-c3cn[nH]c3)cc2)cnc1N (single isomer, unassigned)", "IC50": "> 500 nM"}
{"Compound": "CCc1cc(NC(=O)C(=O)N2C[C@@H](C)CC[C@@H]2c2ccc(NC3CCN(C)CC3)cc2)cnc1N", "IC50": "< 50 nM"}
{"Compound": "Cc1cc(NC(=O)C(=O)N2C[C@H](C)CC[C@H]2c2ccc3sccc3c2)cnc1N (single isomer, unassigned)", "IC50": "> 500 nM"}

Looking up COc1ncc(NC(=O)C(=O)N2C[C@H](C)CC[C@H]2c2ccc3sc(CCN(C)C)nc3c2)cc1C(N)=O (single isomer, unassigned) , I see its IC50 listed as > 500 nM

Looking up COc1ncc(NC(=O)C(=O)N2C[C@@H](C)CC[C@@H]2c2ccc3sc(C4CC(C)(C)N(C)C(C)(C)C4)nc3c2)cc1C(N)=O (single isomer, unassigned) , I see its IC50 listed as < 50 nM

Looking up CNc1ccc([C@@H]2CC[C@@H](C)CN2C(=O)C(=O)Nc2cnc(OC)c(C(N)=O)c2)cn1 (single isomer, unassigned) , I see its IC50 listed as > 500 nM

Looking up Cc1cc(NC(=O)C(=O)N2C[C@H](C)CC[C@H]2c2ccc3sc(N)nc3c2)cnc1N (single isomer, unassigned) , I see its IC50 listed as > 500 nM

Looking up C[C@H]1CC[C@H](c2cc[nH]n2)N(C(=O)C(=O)Nc2cncc(C(N)=O)c2)C1 (single isomer, unassigned) , I see its IC50 listed as 50 to 500 nM

Looking up COc1ncc(NC(=O)C(=O)N2C[C@@H](C)CC[C@@H]2c2ccc3c(c2)OCCN3)cc1C(N)=O (racemic) , I see its IC50 listed as 50 to 500 nM

Looking up C[C@@H]1CC[C@@H](c2ccc(F)cc2)N(C(=O)C(=O)Nc2cnc(N)c(C(F)(F)F)c2)C1 (racemic) , I see its IC50 listed as 50 to 500 nM

Looking up Cc1cc(NC(=O)C(=O)N2C[C@H](C)CC[C@H]2c2cnc3c(c2)CCC(=O)N3)cnc1N (racemic) , I see its IC50 listed as 50 to 500 nM

----------
- System: HAP1 MTAP-deleted cell line
- Assay notes: Viability assay, MTAP-deleted cell line
- Format: cell-based
- Test settings: Homo sapiens, HAP1, viability assay, MTAP-deleted cell line; read-out: HAP1 MTAP deleted viability
pIC50: −log10 of the molar value.
Observed property: pIC50

Before answering, review these 5 worked examples.
{"Compound": "Cc1cc(NC(=O)C(=O)N2C[C@@H]3CC[C@@H](C3)[C@@H]2c2cccs2)cnc1N (single isomer, unassigned)", "Target desc": "HAP1 MTAP-deleted cell line", "pIC50": "< 5.00"}
{"Compound": "Cc1cncc(NC(=O)C(=O)N2C[C@H](C)CC[C@H]2c2ccc(N)cc2)c1 (single isomer, unassigned)", "Target desc": "HAP1 MTAP-deleted cell line", "pIC50": "< 5.00"}
{"Compound": "C[C@H]1CC[C@H](c2ccc3sc(N)nc3c2)N(C(=O)C(=O)Nc2cncc(C(N)=O)c2)C1 (single isomer, unassigned)", "Target desc": "HAP1 MTAP-deleted cell line", "pIC50": "5.00 to 6.00"}
{"Compound": "C[C@H]1CC[C@H](c2ccc(NS(C)(=O)=O)cc2)N(C(=O)C(=O)Nc2cncc(C(N)=O)c2)C1 (single isomer, unassigned)", "Target desc": "HAP1 MTAP-deleted cell line", "pIC50": "5.00 to 6.00"}
{"Compound": "CCc1cc(NC(=O)C(=O)N2C[C@@H](C)CC[C@@H]2c2ccc(NS(C)(=O)=O)nc2)cnc1N (single isomer, unassigned)", "Target desc": "HAP1 MTAP-deleted cell line", "pIC50": "< 5.00"}

Here is the next item to consider.
Looking up Cc1cccc([C@@H]2CC[C@@H](C)CN2C(=O)C(=O)Nc2cncc(C(N)=O)c2)c1 (single isomer, unassigned) , I see its pIC50 listed as < 5.00
